B1: KLHL12 (parent)
chain: REESLPNLLQYVRMPLLTPRYITD

Variants of: B1
Protocol Notes: protein stability index of a GFP-peptide fusion (GPS, HEK-293T) (PSI 1-6); higher = more stable;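 note: lentivirally expressed fusions sorted by FACS into six bins by GFP to DsRed ratio, PSI derived from sequencing read proportions per bin multiplied by bin number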
Assay Conditions: c terminus: a fixed tail appended
Assay Readout: protein stability index
// keep it numeric: no unit symbol after the value

Solved cases (5 shown):
| Var | Endpoint Value |
| --- | --- |
| P6I | 1.95 |
| P19E | 3.03 |
| Y11S | 3.33 |
| P6A | 2.66 |
| Y21D | 3.69 |

Looking for the measured protein stability index of M14Q , can you help?
2.88

Same question, Y21M this time
2.97

Same question, P19W this time
2.41

Same question, T23M this time
2.61

Same question, R20L this time
2.55

Same question, R20H this time
2.56

meta.source: the supplement of paper PMC10567573
